# Test system: human cervical cancer cell line hela
# ASSAY: In vitro tumor cell proliferation inhibition assay (SRB method), hela
# Format: cell-based
# RUN CONDITIONS: 72 hours, SRB, mean of triplicate experiments, read-out: IC50 against hela
MEASURED METRIC: IC50 (µM)
Give just the number in µM; leave the unit off.

COMPOUND | MEASURED ON | QUANTITY UNIT | IC50
C=CC(=O)NCc1c(O)c(O)c(O)c(CNC(=O)C=C)c1C(=O)O [Compound I-1] | human cervical cancer cell line hela | µM | 23.8

Ask | Bench note: what IC50 did Cc1cc(O)c(CNC(=O)CCl)c(C)c1Cl [Compound I-7] show?
Reply | 9.68

Ask | Looking for the measured IC50 of C=CC(=O)NCc1c(O)c(Br)c(O)c(CNC(=O)C=C)c1C(=O)O [Compound I-17] , can you help?
Reply | 3.01

Ask | Form field: reported IC50 of CC(=O)NCc1c(C)cc(O)c(C)c1C [Compound I-6]
Reply | 8.86

====

We begin with a simple list: items and their reported pIC50.
# System: human cervical cancer cell line hela
# ASSAY: In vitro tumor cell proliferation inhibition assay (SRB method), hela
# Assay type: cell-based
# RUN CONDITIONS: 72 hours, SRB, mean of triplicate experiments, read-out: IC50 against hela
Remember, pIC50 is on a log scale: it is -log10 of the molar concentration.

COMPOUND | pIC50
COc1c(CNC(=O)CCl)c(C)cc(C)c1CNC(=O)CCl [Compound I-4] | 5.03
Cc1c(C)c(CNC(=O)CCl)c(C)c(CNC(=O)CCl)c1O [Compound I-5] | 5.25

Read the next record carefully.
Ask | Any idea what its pIC50 is? The compound is Cc1c(O)c(CNC(=O)CCl)cc(CNC(=O)CCl)c1O [Compound I-3]
Reply | 5.03
